Values compiled from ChEMBL document CHEMBL2177092.

- System: CCRF-CEM
- assayText: Cytostatic activity against thymidine-kinase deficient human CEM cells after 72 hrs by cell counting
- Assay type: functional, cell-based
# strict inequality: IC50 < 7 µM yields Yes, everything else yields No

Before answering, review these 3 worked examples.
C[C@H](NP(=O)(OC[C@H]1O[C@@H](n2cc(F)c(=O)[nH]c2=O)C[C@@H]1O)Oc1cccc2ccccc12)C(=O)OC1CCOCC1 (mixture of isomers) | No
CC(C)(NP(=O)(OC[C@H]1O[C@@H](n2cc(F)c(=O)[nH]c2=O)C[C@@H]1O)Oc1cccc2ccccc12)C(=O)OCc1ccccc1 (mixture of isomers) | Yes
O=C(OCc1ccccc1)[C@@H]1CCCN1P(=O)(OC[C@H]1O[C@@H](n2cc(F)c(=O)[nH]c2=O)C[C@@H]1O)Oc1cccc2ccccc12 (mixture of isomers) | No

Item CCCCCCOC(=O)[C@H](C)NP(=O)(OC[C@H]1O[C@@H](n2cc(F)c(=O)[nH]c2=O)C[C@@H]1O)Oc1cccc2ccccc12 (mixture of isomers) : IC50 beneath 7 µM, strictly?
Yes

Is IC50 strictly under 7 µM for the entry CC[C@H](C)[C@H](NP(=O)(OC[C@H]1O[C@@H](n2cc(F)c(=O)[nH]c2=O)C[C@@H]1O)Oc1ccccc1)C(=O)OCc1ccccc1 (mixture of isomers) ?
No

Dear colleague, could you confirm whether IC50 of CC(C)C[C@H](NP(=O)(OC[C@H]1O[C@@H](n2cc(F)c(=O)[nH]c2=O)C[C@@H]1O)Oc1cccc2ccccc12)C(=O)OCc1ccccc1 (mixture of isomers) falls below 7 µM? Thanks.
No
